Origin of values: PubChem BioAssay AID1159580

experiment: chemical genetic growth profiling, strain panel (AID 1159580);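 further: tested at 20 µM; growth read once vehicle control cultures reached saturation at 30 °C; lower values mean less growth of the strain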; conditions: S. cerevisiae deletion strains, growth OD, locus YOR070C, strain gyp1, hits give low values
Among all 5,500 compounds or so, about 2,000 (36%) were called active. About 18% were inconclusive and are not listed. The list shows a part of the results.
# met = normalized growth below 1 (exclusive); not met = normalized growth at/above 1

- GIVEN_SMILES: "COc1ccc(CCN2CCC(Nc3nc4ccccc4n3Cc3ccc(F)cc3)CC2)cc1"
  ASSIGNED_CATEGORY: "met"
- GIVEN_SMILES: "O=C(Cn1ccnc1[N+](=O)[O-])NCCO"
  ASSIGNED_CATEGORY: "not met"
- GIVEN_SMILES: "Oc1ccc(Cl)cc1Cc1cc(Cl)ccc1O"
  ASSIGNED_CATEGORY: "met"
- GIVEN_SMILES: "Cn1c(=O)c2[nH]cnc2n(C)c1=O"
  ASSIGNED_CATEGORY: "not met"
- GIVEN_SMILES: "COc1c2ccoc2c(OC)c2oc(=O)ccc12"
  ASSIGNED_CATEGORY: "met"

###

test: chemical genetic growth profiling, strain panel (AID 1159580);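 further: tested at 20 µM; growth read once vehicle control cultures reached saturation at 30 °C; lower values mean less growth of the strain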; conditions: S. cerevisiae deletion strains, growth OD, locus YAL021C, strain ccr4
Where a name gives a salt, the structure may show the parent alone. Out of some 5,500 compounds screened, about 2,000 (36%) were called active. Inconclusive results (about 18%) are left out. Cut-off read from the data, not from the text of the source: active = normalized growth mostly below about 0.91 (no sharp cut-off); inconclusive = no clear call, values can overlap the other calls; inactive = mostly above about 0.92. The list shows a part of the results. Where a SMILES comes first, the peptide text is derived from it. The star is where a group is joined. Tfa = O=C(C(F)(F)F)*
Possible outcomes: active, inactive

- COMPOUND: "Cc1coc2c1C(=O)C(=O)c1c-2ccc2c1CCCC2(C)C"
  ASSIGNED_CATEGORY: "inactive"
- COMPOUND: "O=C1CC2OCC=C3CN4CC[C@]56c7ccccc7N1C5[C@H]2[C@H]3CC46 (stereo partly specified)"
  ASSIGNED_CATEGORY: "inactive"
- COMPOUND: "COc1ccc(-c2coc3cc(OC)cc(OC)c3c2=O)cc1"
  ASSIGNED_CATEGORY: "inactive"
- COMPOUND: "COC(=O)C(O)c1ccccc1 (stereo unspecified)"
  ASSIGNED_CATEGORY: "inactive"
- COMPOUND: "COc1cc2c(cc1OC)C1Cc3ccc(OC)c(OC)c3CN1CC2 (stereo unspecified)"
  ASSIGNED_CATEGORY: "inactive"
- COMPOUND: "CC(C)COCC(CN(Cc1ccccc1)c1ccccc1)N1CCCC1 (stereo unspecified)"
  ASSIGNED_CATEGORY: "inactive"
- COMPOUND: "COc1cc(OC)c2c(=O)c(-c3ccccc3)coc2c1"
  ASSIGNED_CATEGORY: "inactive"
- COMPOUND: "C=C1CCC2C(CC2(C)C)C(=O)CCC1O (stereo unspecified)"
  ASSIGNED_CATEGORY: "inactive"
- COMPOUND: "COc1cc2occ(-c3ccccc3)c(=O)c2c(OC)c1C"
  ASSIGNED_CATEGORY: "inactive"
- COMPOUND: "CCCCCCCCCCCCCCCC(=O)OC1C(SC)OC(C(NC(=O)C2CC(CCC)CN2C)C(C)Cl)C(O)C1O (stereo unspecified)"
  ASSIGNED_CATEGORY: "inactive"
- COMPOUND: "C[N+]1(C)C2CC(OC(=O)[C@@H](CO)c3ccccc3)CC1C1OC12 (stereo partly specified)"
  ASSIGNED_CATEGORY: "inactive"
- COMPOUND: "NC(CO)C(=O)NNCc1ccc(O)c(O)c1O (stereo unspecified)"
  ASSIGNED_CATEGORY: "inactive"
- COMPOUND: "CC(C)C(C)/C=C/C(C)C1CCC2C3=CC=C4CC(O)CCC4(C)C3CCC21C (stereo unspecified)"
  ASSIGNED_CATEGORY: "inactive"
- COMPOUND: "Cc1c(S(=O)(=O)O)oc2c1C(=O)C(=O)c1c-2ccc2c1CCCC2(C)C"
  ASSIGNED_CATEGORY: "inactive"
- COMPOUND: "CCCC(=O)O[C@]1(C(=O)CO)CCC2[C@@H]3CCC4=CC(=O)CC[C@]4(C)C3[C@@H](O)C[C@@]21C (stereo partly specified)"
  ASSIGNED_CATEGORY: "inactive"
- COMPOUND: "Cc1ccc(C)c(OCCCC(C)(C)C(=O)O)c1"
  ASSIGNED_CATEGORY: "inactive"
- COMPOUND: "COC(=O)C[C@H]1C(C)(C)C(=O)[C@@H]2CC3=C(CC[C@]4(C)C3=CC(=O)O[C@H]4c3ccoc3)[C@@]1(C)C2=O"
  ASSIGNED_CATEGORY: "inactive"
- COMPOUND: "CC(=O)OC1CCC2(C)C(=CC=C3C2CCC2(C)C3CCC2C(C)/C=C/C(C)C(C)C)C1(C)C (stereo unspecified)"
  ASSIGNED_CATEGORY: "inactive"
- COMPOUND: "Cc1cccc(C)c1NC1=NCCCS1"
  ASSIGNED_CATEGORY: "inactive"
- COMPOUND: "CC(=O)N[C@@H](CS)C(=O)O"
  ASSIGNED_CATEGORY: "inactive"
- COMPOUND: "CCCCOC(=O)c1ccccc1C(=O)OCCCC"
  ASSIGNED_CATEGORY: "inactive"
- COMPOUND: "CCCOc1ccc(C(=O)OCCN(CC)CC)cc1N"
  ASSIGNED_CATEGORY: "inactive"
- COMPOUND: "C[C@H]1COC2=C1C(=O)C(=O)c1c2ccc2c1CCCC2(C)C"
  ASSIGNED_CATEGORY: "active"
- COMPOUND: "CCN(CC)CCOC(=O)c1ccc(N)cc1"
  ASSIGNED_CATEGORY: "inactive"
- COMPOUND: "CC(C)(Oc1ccc(C2CC2(Cl)Cl)cc1)C(=O)O (stereo unspecified)"
  ASSIGNED_CATEGORY: "inactive"
- COMPOUND: "O=C1C=C2C=C[C@@H]3C[C@@]2(O1)[C@H]1CCCCN31"
  ASSIGNED_CATEGORY: "inactive"
- COMPOUND: "Nc1nc2ncc(=O)[nH]c2c(=O)[nH]1"
  ASSIGNED_CATEGORY: "inactive"
- COMPOUND: "CCCCOC(=O)c1ccc(N)cc1"
  ASSIGNED_CATEGORY: "inactive"
- COMPOUND: "Nc1ccc(N=Nc2ccccc2)c(N)n1"
  ASSIGNED_CATEGORY: "active"
- COMPOUND: "CC1C[C@H]2CC(=O)[C@H]3CCCN4CCC[C@H]2[C@]34C1 (stereo partly specified)"
  ASSIGNED_CATEGORY: "inactive"
- COMPOUND: "CC(C)C(NC(=O)C(Cc1ccc(O)cc1)NC(=O)C(NC(=O)C(F)(F)F)C(C)C)C(=O)O (stereo not drawn) (Tfa-Val-Tyr-Val-OH; configuration not given here)"
  ASSIGNED_CATEGORY: "inactive"
